Measured values drawn from patent US20120207760A1 for this set.

- TESTED_ON: recombinant homotrimeric HA, A/Wisconsin/67/05 H3N2 (Influenza A virus A/Wisconsin/67/05 (H3N2))
- ASSAY_DETAILS: trimeric HA microarray, transfection set 3
- MEASUREMENT_CONDITIONS: remark: other sources report otherwise
Hi, to clarify the labels: class 1 covers Trimeric HA Binding RLU from 20000 RLU upward, class 0 covers anything below 20000 RLU.

BINDER	CLASS_LABEL
TCN-529 (5297_H01) (antibody, V domains shown) VH: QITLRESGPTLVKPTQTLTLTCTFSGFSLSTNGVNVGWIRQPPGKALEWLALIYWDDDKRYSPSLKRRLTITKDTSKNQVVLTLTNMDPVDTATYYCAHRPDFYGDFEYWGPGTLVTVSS VL: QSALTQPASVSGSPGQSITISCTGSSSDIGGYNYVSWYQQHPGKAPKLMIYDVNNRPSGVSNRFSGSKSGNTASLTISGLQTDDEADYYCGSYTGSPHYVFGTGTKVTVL	class 0
TCN-530 (5248_H10a) (antibody, V domains shown) VH: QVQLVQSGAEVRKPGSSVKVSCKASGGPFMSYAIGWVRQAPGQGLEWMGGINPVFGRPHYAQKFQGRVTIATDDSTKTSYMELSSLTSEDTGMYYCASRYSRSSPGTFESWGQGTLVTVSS VL: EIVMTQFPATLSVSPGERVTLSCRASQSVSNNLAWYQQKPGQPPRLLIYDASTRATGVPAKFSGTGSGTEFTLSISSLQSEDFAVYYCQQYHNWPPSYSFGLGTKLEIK	class 0
TCN-533 (5256_A17) (antibody, V domains shown) VH: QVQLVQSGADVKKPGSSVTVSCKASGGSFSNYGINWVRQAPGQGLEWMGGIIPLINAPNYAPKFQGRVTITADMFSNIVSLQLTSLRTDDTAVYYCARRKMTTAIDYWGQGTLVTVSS VL: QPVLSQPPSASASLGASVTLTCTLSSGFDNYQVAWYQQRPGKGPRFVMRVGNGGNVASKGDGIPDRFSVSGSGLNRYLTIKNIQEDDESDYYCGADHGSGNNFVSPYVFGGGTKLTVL	class 0
TCN-504 (3251_K17) (antibody, V domains shown) VH: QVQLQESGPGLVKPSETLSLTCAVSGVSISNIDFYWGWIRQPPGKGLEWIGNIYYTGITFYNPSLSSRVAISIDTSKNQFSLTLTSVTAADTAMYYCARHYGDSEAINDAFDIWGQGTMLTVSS VL: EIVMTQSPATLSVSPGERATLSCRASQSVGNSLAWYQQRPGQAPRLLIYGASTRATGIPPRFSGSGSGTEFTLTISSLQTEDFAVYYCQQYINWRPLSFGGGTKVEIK	class 1
TCN-531 (5091_H13) (antibody, V domains shown) VH: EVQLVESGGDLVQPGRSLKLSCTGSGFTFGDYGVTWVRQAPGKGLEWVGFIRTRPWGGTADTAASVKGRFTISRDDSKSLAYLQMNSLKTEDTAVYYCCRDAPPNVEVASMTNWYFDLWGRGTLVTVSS VL: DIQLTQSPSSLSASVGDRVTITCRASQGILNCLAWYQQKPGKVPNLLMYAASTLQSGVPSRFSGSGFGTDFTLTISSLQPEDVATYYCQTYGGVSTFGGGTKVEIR	class 0
TCN-532 (5262_H18) (antibody, V domains shown) VH: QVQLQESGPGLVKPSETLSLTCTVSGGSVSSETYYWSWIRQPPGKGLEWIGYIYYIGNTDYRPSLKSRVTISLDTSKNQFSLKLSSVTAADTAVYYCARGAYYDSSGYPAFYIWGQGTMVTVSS VL: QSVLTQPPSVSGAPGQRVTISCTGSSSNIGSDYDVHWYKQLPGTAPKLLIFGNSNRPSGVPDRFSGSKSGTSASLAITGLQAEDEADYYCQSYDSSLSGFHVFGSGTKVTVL	class 0
